Reported MIC values are given for each entry in this list.
# Test system: pathogenic bacteria
# METHOD: MIC by microdilution broth method (NCCLS M7-A4), in vitro antibacterial activity
# Type: cell-based
# STUDY_CONDITIONS: Streptococcus pneumoniae, Organism C: fluoroquinolone-resistant clinical isolate of Streptococcus pneumoniae (QRDR amino acid substitutions)
Give the quantity in µg/mL, number only.

Consider the reported MIC for these molecules:
NCC=C1CCN(c2nc3c(cc2F)c(=O)c(C(=O)O)cn3C2CC2)CC1O (stereo not shown) [Compound 60]: 16
C=CCC(CN)=C1CCN(c2c(F)cc3c(=O)c(C(=O)O)cn(C4CC4)c3c2OC)CC1 [Compound 203]: 1

Alright, here's another molecule for you.
Given C[C@H]1COc2c(N3CC(=C(F)CN)C3)c(F)cc3c(=O)c(C(=O)O)cn1c23 [Compound 276] , state its recorded MIC.
2

====

# Tested on: pathogenic bacteria
# METHOD: MIC by microdilution broth method (NCCLS M7-A4), in vitro antibacterial activity
# Type: cell-based
# STUDY_CONDITIONS: Streptococcus pneumoniae, Organism B: fluoroquinolone-resistant clinical isolate of Streptococcus pneumoniae (QRDR amino acid substitutions)
MEASURE_NAME: MIC (µg/mL)
# unit: µg/mL | format: bare number

These solved cases illustrate the format of a correct answer.
COc1c(N2CCC/C(=C(\Cl)CN)CC2)c(F)cc2c(=O)c(C(=O)O)cn(C3CC3)c12: 1
Nc1nc(-n2cc(C(=O)O)c(=O)c3cc(F)c(N4CCC(=C(F)CO)CC4)c(Cl)c32)c(F)cc1F: 8
NC/C=C1/CCCN(c2c(F)cc3c(=O)c(C(=O)O)cn(-c4nc(N)c(F)cc4F)c3c2Cl)C1: 16

Note: attention shifts to another entry.
Requested read-out: MIC. Entry: NCC(F)=C1CCN(c2cc3c(cc2F)c(=O)c(C(=O)O)cn3C2CC2)CC1
0.25

====

# Tested on: pathogenic bacteria
# METHOD: MIC by microdilution broth method (NCCLS M7-A4), in vitro antibacterial activity
# Assay type: cell-based
# STUDY_CONDITIONS: Staphylococcus aureus, Organism A: Staphylococcus aureus OC4172; read-out: MIC
Listed below: MIC values for each entry.
Note: unit µg/mL is implicit; provide only the numeric part.

COc1c(N2CCC(=C(F)CN)CC2)ccc2c(=O)c(C(=O)O)cn(C3CC3)c12: 0.03

Look up MIC: C[C@H]1COc2c(N3CCC(=C(C#N)CN)CC3)c(F)cc3c(=O)c(C(=O)O)cn1c23
0.12

Can you look up the measured MIC of N#C/C(CN)=C1\CCCN(c2nc3c(cc2F)c(=O)c(C(=O)O)cn3C2CC2)C1 for me?
0.5

Fill in the blank: the reported MIC of CC(CO)=C1CCN(c2c(F)cc3c(=O)c(C(=O)O)cn4c3c2OCC4C)CC1 (stereo not shown) is ____.
0.03

Form field: reported MIC of NC/C(F)=C1\CCCN(c2nc3c(cc2F)c(=O)c(C(=O)O)cn3C2CC2)CC1
0.25

Given the molecule COc1c(N2CCC(=C(C)CN)CC2)c(F)cc2c(=O)c(C(=O)O)cn(C3CC3)c12 , what is its reported MIC?
0.03

Reported MIC for NC/C(Cl)=C1/CCCN(c2cc3c(cc2F)c(=O)c(C(=O)O)cn3C2CC2)CC1 : what is it?
0.5
